Numbers sourced from paper PMC12342889.

# Target Or System: MSI-1 RRM2-M2 (Homo sapiens, UniProt O43347 104-200, K182M)
# Sequence (O43347 104-200 K182M): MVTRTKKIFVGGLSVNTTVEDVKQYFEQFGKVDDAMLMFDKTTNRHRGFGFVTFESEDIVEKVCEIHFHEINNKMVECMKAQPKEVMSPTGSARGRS
# Assay Protocol: SPR; NMR: 50 mM Tris-HCl, 140 mM NaCl, 1 mM EDTA, 1 mM protease inhibitors, pH 7.2 (RRM1: pH 7.5), 298 K; fluorescence quenching: 50 mM Tris pH 7.2, 140 mM NaCl, 1 mM EDTA; SPR: biotinylated RNA immobilised, buffer not in the material
# Recorded Conditions: protein: recombinant; label: biotin for SPR; unlabelled for NMR; single strand
Listed next: entries and their corresponding Kd.
Only the number, expressed in nM, is required.

UUGUUAGUUAUUAGUU (ssRNA) [oligo-L3]; 64.5
UUGUUAGUUACCCCUU (ssRNA) [oligo-L2]; 108

Given the entry UUGAUAGUUAGCAGGU (ssRNA) [oligo-L3.2] , report its measured Kd. 88.5
